The following substances each carry a recorded Minimum inhibitory concentration, Escherichia coli E416-7 for Escherichia coli E416-7.
Ends that are not written are not given here.
Numbers only; they are read as µM.

Answered examples (2):
>>> measured_value("RWVRGVVSGVVRRVVS-NH2 [DFTavP4]")
16
>>> measured_value("RWLRGLLSGLLRRLLSGLLL-NH2 [DFTavP1]")
16

Form field, Minimum inhibitory concentration, Escherichia coli E416-7 with Escherichia coli E416-7, item RWLRGLLSGLLRRLLS-NH2 [DFTavP2] : 4
